assay: recombinant UMI read abundance after kanamycin selection (control-corrected) (log10(CPM+1)); higher = more efficient recombination; extreme values may be limits of the assay; sequences stand for … in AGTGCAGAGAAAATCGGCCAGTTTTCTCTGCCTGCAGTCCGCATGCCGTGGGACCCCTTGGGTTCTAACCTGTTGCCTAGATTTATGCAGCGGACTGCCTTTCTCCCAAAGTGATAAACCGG…AGGTTGGTTTCACT; site = the 11-nt donor;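 also: IS621 bridge recombinase in Escherichia coli cells against a fixed T5 target plasmid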
Would you please tag the item condition met when its recombinant UMI read abundance (log10) is 0.003 or above, and condition not met when it is below?

// query Quick check: does ACTAGTGCATGGACCGGTTTTCCCGGTAATCCGTATTTGGT (site ACTAGTGCTAC) have recombinant UMI read abundance (log10) greater than or equal to 0.003?
// result condition met

// query Hello, I need to know if CCAGGTGCATGGACCGGTTTTCCCGGTAATCCGTATTTGAT (site CCATGTGCTAT) has measured recombinant UMI read abundance (log10) not below 0.003. Thanks!
// result condition met

// query Evaluate GTAGCGACATGGACCGGTTTTCCCGGTAATCCGTATTTGAG (site GTAGCGACTCT) : recombinant UMI read abundance (log10) at minimum 0.003?
// result condition met

// query Assess whether reported recombinant UMI read abundance (log10) for CAAACAGCATGGACCGGTTTTCCCGGTAATCCGTATTTGCT (site CAAACAGCTAG) sits at 0.003 or higher.
// result condition met

// query Please tell me: is the sequence GCGAAAACATGGACCGGTTTTCCCGGTAATCCGTATTTGCT (site GCGAGAACTAG) at or over 0.003 in terms of recombinant UMI read abundance (log10)?
// result condition not met

// query Entry AAGGTAACATGGACCGGTTTTCCCGGTAATCCGTATTTGCT (site AAGGTAACTAG) : is its recombinant UMI read abundance (log10) no less than 0.003?
// result condition met

// query Record GCGACGCCATGGACCGGTTTTCCCGGTAATCCGTATTTGGG (site GCGATGCCTCC) ; criterion: recombinant UMI read abundance (log10) no lower than 0.003. Met?
// result condition met

// query Reported recombinant UMI read abundance (log10) at or above 0.003? CGATCATCATGGACCGGTTTTCCCGGTAATCCGTATTTGCA (site CGATCATCTGG)
// result condition not met

// query Dear colleague, could you confirm whether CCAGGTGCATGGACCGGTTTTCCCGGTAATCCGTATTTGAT (site CCAGGTTCTAT) has recombinant UMI read abundance (log10) at or above 0.003?
// result condition met

// query Reported recombinant UMI read abundance (log10) reaches at least 0.003 for GGTACGTCATGGACCGGTTTTCCCGGTAATCCGTATTTGCT (site GGTACGTCTAT) ?
// result condition met

// query Check this sequence for recombinant UMI read abundance (log10) at or above 0.003: TAAACCACATGGACCGGTTTTCCCGGTAATCCGTATTTGAT (site TAAACCACTAT)
// result condition met

// query Item CTGGAGGCATGGACCGGTTTTCCCGGTAATCCGTATTTGTG (site ATGGAGGCTCA) with recombinant UMI read abundance (log10) of 0.003 or above?
// result condition met

// query Answer whether recombinant UMI read abundance (log10) of ATGAAGGCATGGACCGGTTTTCCCGGTAATCCGTATTTGGC (site ATGCAGGCTGC) is greater than or equal to 0.003.
// result condition met

// query Is the recorded value of recombinant UMI read abundance (log10) equal to or greater than 0.003 for this sequence? CACTTGGCATGGACCGGTTTTCCCGGTAATCCGTATTTGGG (site CACTTGGCTGC)
// result condition not met

// query In plain terms: is recorded recombinant UMI read abundance (log10) at least 0.003 for CCCATATCATGGACCGGTTTTCCCGGTAATCCGTATTTGTT (site CCCATATCTCA) ?
// result condition met

// query Given the entry ATCCTGGCATGGACCGGTTTTCCCGGTAATCCGTATTTGAC (site ATCCTGGCTGT) , answer whether its recombinant UMI read abundance (log10) meets or surpasses 0.003.
// result condition not met

// query Is recombinant UMI read abundance (log10) at least 0.003? Consider GGTCCAACATGGACCGGTTTTCCCGGTAATCCGTATTTGGA (site GGTCCAACTTA)
// result condition met

// query Entry TGATCAACATGGACCGGTTTTCCCGGTAATCCGTATTTGCT (site CGATCATCTAG) : is its recombinant UMI read abundance (log10) no less than 0.003?
// result condition not met

// query Determine whether this sequence has recombinant UMI read abundance (log10) no lower than 0.003: GTCAGAACATGGACCGGTTTTCCCGGTAATCCGTATTTGAT (site GTCAGAACTAT)
// result condition met

// query Given the entry CCTGTCGCATGGACCGGTTTTCCCGGTAATCCGTATTTGAC (site CCTGTCGCTGT) , answer whether its recombinant UMI read abundance (log10) meets or surpasses 0.003.
// result condition not met

Values compiled from the supplement of paper PMC11208160.
